Literature survey of IC50 (system: IRAK4 (Homo sapiens (Human), UniProt Q9NWZ3)).

Provide IC50, tested on IRAK4 (Homo sapiens (Human), UniProt Q9NWZ3), for Nc1cccc(-c2ccc3cnn(-c4cccc(C(F)(F)F)n4)c3c2)c1 .
< 100 nM

Provide IC50, tested on IRAK4 (Homo sapiens (Human), UniProt Q9NWZ3), for O=C(CCc1cn(-c2ccccc2)c(NC(=O)c2cccc(-c3c[nH]nc3C(F)(F)F)c2)n1)Nc1ccccc1 .
> 100 nM

Provide IC50, tested on IRAK4 (Homo sapiens (Human), UniProt Q9NWZ3), for C=Cc1ccc2ncnc(N[C@H]3CC[C@H](N4CCC5(CC4)CC5)CC3)c2c1 .
≤ 5000 nM

Provide IC50, tested on IRAK4 (Homo sapiens (Human), UniProt Q9NWZ3), for CC(C)Nc1c(C(=O)N[C@H]2CC[C@H](N)CC2)cnc2c1Oc1cc(C#N)ccc1O2 .
34 nM

----------
pIC50: −log10 of the molar value.
Literature survey of pIC50 (system: IRAK4 (Homo sapiens (Human), UniProt Q9NWZ3)).

Provide pIC50, tested on IRAK4 (Homo sapiens (Human), UniProt Q9NWZ3), for COc1ccc2cc1Cn1c(nc3ccccc31)NC(=O)c1cccc(c1)Cn1nc-2ccc1=O .
> 7.00

Provide pIC50, tested on IRAK4 (Homo sapiens (Human), UniProt Q9NWZ3), for CC1(Nc2cc(-c3cnn4cc(Cl)cnc34)ncc2C(=O)NC[C@@H](F)C(C)(C)O)CC1 .
8.22

Provide pIC50, tested on IRAK4 (Homo sapiens (Human), UniProt Q9NWZ3), for CC(C)(O)[C@H](F)CNC(=O)c1cnc(Nc2ccc3ncccc3c2)cc1NC1CCCC1(F)F (stereo partly drawn) .
8.55

Provide pIC50, tested on IRAK4 (Homo sapiens (Human), UniProt Q9NWZ3), for Cn1cc(-c2cccc(-c3ncc(-c4cnn(C)c4)c(NCC4(O)CCNCC4)n3)c2)cn1 .
6.00 to 7.00

Provide pIC50, tested on IRAK4 (Homo sapiens (Human), UniProt Q9NWZ3), for N#Cc1ccc(-n2cnc3cc(OCCOCCO)c(NC4CCCC(O)C4)nc32)nc1 (stereo not drawn) .
8.31

Provide pIC50, tested on IRAK4 (Homo sapiens (Human), UniProt Q9NWZ3), for Cn1cc(Nc2nc(O[C@H]3CC[C@H](N(C)C)CC3)c3c4c(sc3n2)CC[C@@H]4CC(N)=O)cn1 .
≥ 5.30

Provide pIC50, tested on IRAK4 (Homo sapiens (Human), UniProt Q9NWZ3), for O=C(CCCCCc1cn(-c2ccccc2)c(NC(=O)c2cccc(-c3cn[nH]c3)c2)n1)Nc1ccccc1 .
> 7.30

Provide pIC50, tested on IRAK4 (Homo sapiens (Human), UniProt Q9NWZ3), for CC1(C)OC(=O)c2ccc(Nc3ncc(C(=O)NNC(=O)C4CC4)c(N[C@H](CO)c4ccccc4)n3)cc21 .
6.00 to 6.60

Provide pIC50, tested on IRAK4 (Homo sapiens (Human), UniProt Q9NWZ3), for CC(C)(F)CCc1cn(-c2cnc(-n3ncc4cc(C#N)cnc43)cc2NC2COC2)nn1 .
8.22

Provide pIC50, tested on IRAK4 (Homo sapiens (Human), UniProt Q9NWZ3), for CCc1nc2c(N[C@H]3CC[C@H](N4CCC5(CC4)CC5)CC3)nc(Nc3cnn(C4CCOCC4)c3)nc2s1 .
≥ 6.00

Provide pIC50, tested on IRAK4 (Homo sapiens (Human), UniProt Q9NWZ3), for CN[C@H]1CCC[C@H](Nc2nc(-c3cccc(-c4cnn(C)c4)c3)ncc2-c2cnn(C)c2)[C@@H]1O (racemic) .
> 7.00

Provide pIC50, tested on IRAK4 (Homo sapiens (Human), UniProt Q9NWZ3), for Cn1cc(-c2cccc(C(=O)Nc3nc(CCCC(=O)N4CC[C@@H](N)C4)cn3-c3ccccc3)c2)cn1 .
> 7.30

Provide pIC50, tested on IRAK4 (Homo sapiens (Human), UniProt Q9NWZ3), for CN(C)[C@H]1CC[C@H](Nc2ncnc3ccc(-c4cncc(C(=O)O)c4)cc23)CC1 .
6.30

Provide pIC50, tested on IRAK4 (Homo sapiens (Human), UniProt Q9NWZ3), for CCOc1cc(-c2cccc(C(C)N)n2)cc2c1cnn2-c1cccc(C)n1 (stereo not drawn) .
> 7.00

Provide pIC50, tested on IRAK4 (Homo sapiens (Human), UniProt Q9NWZ3), for CC(C)(O)[C@H](F)CNC(=O)c1cnc(-c2ccc3cc(C#N)cnn23)cc1NC12CCC(c3cnco3)(CC1)CC2 .
> 9.00
